Origin of values: paper PMC8822125

# System: sheep red blood cells
# RUN_CONDITIONS: 50 μg/mL peptide; sheep red blood cells in PBS, 37°C, 1 h, OD576, relative to melittin; mean ± SD, three repeats
Where a SMILES comes first, the peptide text is derived from it.
OBSERVABLE: Hemolytic rate, 50 μg/mL (%)
Report as a plain number; the unit % is understood.

Past entries and their recorded results:
COMPOUND	RECORDED_RESULT
CC[C@H](C)[C@H](NC(=O)[C@H](CCCNC(=N)N)NC(=O)[C@H](CCCNC(=N)N)NC(=O)[C@H](Cc1ccccc1)NC(=O)[C@H](CC(C)C)NC(=O)[C@@H](CCCNC(=N)N)NC(=O)[C@@H](N)CCCNC(=N)N)C(=O)N[C@@H](CC(C)C)C(=O)N[C@@H](CCCNC(=N)N)C(=O)N[C@@H](Cc1c[nH]c2ccccc12)C(=O)N[C@@H](CC(C)C)C(N)=O [RW-BP100-2D] (HELM PEPTIDE1{R.[dR].L.F.R.R.I.L.R.W.L.[am]}$$$$V2.0)	4.83
CC[C@H](C)[C@H](NC(=O)[C@H](CCCNC(=N)N)NC(=O)[C@H](CCCNC(=N)N)NC(=O)[C@H](Cc1ccccc1)NC(=O)[C@H](CC(C)C)NC(=O)[C@H](CCCNC(=N)N)NC(=O)[C@@H](N)CCCNC(=N)N)C(=O)N[C@@H](CC(C)C)C(=O)N[C@@H](CCCNC(=N)N)C(=O)N[C@H](Cc1c[nH]c2ccccc12)C(=O)N[C@@H](CC(C)C)C(N)=O [RW-BP100-10D] (HELM PEPTIDE1{R.R.L.F.R.R.I.L.R.[dW].L.[am]}$$$$V2.0)	0.31

input: Data request, read-out Hemolytic rate, 50 μg/mL, for CC[C@H](C)[C@H](NC(=O)[C@H](CCCNC(=N)N)NC(=O)[C@H](CCCNC(=N)N)NC(=O)[C@H](Cc1ccccc1)NC(=O)[C@H](CC(C)C)NC(=O)[C@H](CCCNC(=N)N)NC(=O)[C@@H](N)CCCNC(=N)N)C(=O)N[C@H](CC(C)C)C(=O)N[C@@H](CCCNC(=N)N)C(=O)N[C@@H](Cc1c[nH]c2ccccc12)C(=O)N[C@@H](CC(C)C)C(N)=O [RW-BP100-8D] (HELM PEPTIDE1{R.R.L.F.R.R.I.[dL].R.W.L.[am]}$$$$V2.0)
output: 0.91

input: // repeat for CC[C@H](C)[C@H](NC(=O)[C@H](CCCNC(=N)N)NC(=O)[C@H](CCCNC(=N)N)NC(=O)[C@H](Cc1ccccc1)NC(=O)[C@H](CC(C)C)NC(=O)[C@H](CCCNC(=N)N)NC(=O)[C@H](N)CCCNC(=N)N)C(=O)N[C@@H](CC(C)C)C(=O)N[C@@H](CCCNC(=N)N)C(=O)N[C@@H](Cc1c[nH]c2ccccc12)C(=O)N[C@@H](CC(C)C)C(N)=O [RW-BP100-1D] (HELM PEPTIDE1{[dR].R.L.F.R.R.I.L.R.W.L.[am]}$$$$V2.0) and report
output: 4.61

----------
# Hemolytic rate, 300 μg/mL per record follows
# Tested on: sheep red blood cells;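 note: hemolysis expressed in % from supernatant absorbance, with PBS-treated cells as 0% baseline and melittin as 100%, peptide mixed 1:1 with an 8% v/v erythrocyte suspension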
# RUN_CONDITIONS: 300 μg/mL peptide; sheep red blood cells in PBS, 37°C, 1 h, OD576, relative to melittin; mean ± SD, three repeats
Where a SMILES comes first, the peptide text is derived from it.
Write the quantity with the unit trailing the number.

Past entries and their recorded results:
MOLECULE	Hemolytic rate, 300 μg/mL
CC[C@H](C)[C@H](NC(=O)[C@H](CCCNC(=N)N)NC(=O)[C@H](CCCNC(=N)N)NC(=O)[C@H](Cc1ccccc1)NC(=O)[C@H](CC(C)C)NC(=O)[C@H](CCCNC(=N)N)NC(=O)[C@@H](N)CCCNC(=N)N)C(=O)N[C@@H](CC(C)C)C(=O)N[C@H](CCCNC(=N)N)C(=O)N[C@@H](Cc1c[nH]c2ccccc12)C(=O)N[C@@H](CC(C)C)C(N)=O [RW-BP100-9D] (HELM PEPTIDE1{R.R.L.F.R.R.I.L.[dR].W.L.[am]}$$$$V2.0)	45.18 ± 2.41%
CC[C@@H](C)[C@@H](NC(=O)[C@@H](CCCNC(=N)N)NC(=O)[C@@H](CCCNC(=N)N)NC(=O)[C@@H](Cc1ccccc1)NC(=O)[C@@H](CC(C)C)NC(=O)[C@@H](CCCNC(=N)N)NC(=O)[C@H](N)CCCNC(=N)N)C(=O)N[C@H](CC(C)C)C(=O)N[C@H](CCCNC(=N)N)C(=O)N[C@H](Cc1c[nH]c2ccccc12)C(=O)N[C@H](CC(C)C)C(N)=O [RW-BP100-All-D] (HELM PEPTIDE1{[dR].[dR].[dL].[dF].[dR].[dR].[dI].[dL].[dR].[dW].[dL].[am]}$$$$V2.0)	51.40 ± 1.94%
CC[C@H](C)[C@H](NC(=O)[C@H](CCCNC(=N)N)NC(=O)[C@H](CCCNC(=N)N)NC(=O)[C@H](Cc1ccccc1)NC(=O)[C@H](CC(C)C)NC(=O)[C@H](CCCNC(=N)N)NC(=O)[C@@H](N)CCCNC(=N)N)C(=O)N[C@@H](CC(C)C)C(=O)N[C@@H](CCCNC(=N)N)C(=O)N[C@H](Cc1c[nH]c2ccccc12)C(=O)N[C@@H](CC(C)C)C(N)=O [RW-BP100-10D] (HELM PEPTIDE1{R.R.L.F.R.R.I.L.R.[dW].L.[am]}$$$$V2.0)	45.08 ± 4.70%

input: Data request, read-out Hemolytic rate, 300 μg/mL, for CC[C@H](C)[C@H](NC(=O)[C@H](CCCNC(=N)N)NC(=O)[C@H](CCCNC(=N)N)NC(=O)[C@H](Cc1ccccc1)NC(=O)[C@H](CC(C)C)NC(=O)[C@H](CCCNC(=N)N)NC(=O)[C@@H](N)CCCNC(=N)N)C(=O)N[C@@H](CC(C)C)C(=O)N[C@@H](CCCNC(=N)N)C(=O)N[C@@H](Cc1c[nH]c2ccccc12)C(=O)N[C@H](CC(C)C)C(N)=O [RW-BP100-11D] (HELM PEPTIDE1{R.R.L.F.R.R.I.L.R.W.[dL].[am]}$$$$V2.0)
output: 46.97 ± 6.45%

----------
# Tested on: Escherichia coli ATCC25922
# RUN_CONDITIONS: Table 1; broth microdilution CLSI M100-S25, MH broth, 37°C, 18 h, three independent repeats
Where a SMILES comes first, the peptide text is derived from it.
OBSERVABLE: MIC Escherichia coli ATCC25922 (µg/mL)
Report as a plain number; the unit µg/mL is understood.

COMPOUND	UNITS_OF_MEASURE	MIC Escherichia coli ATCC25922
CC[C@@H](C)[C@@H](NC(=O)[C@H](CCCNC(=N)N)NC(=O)[C@H](CCCNC(=N)N)NC(=O)[C@H](Cc1ccccc1)NC(=O)[C@H](CC(C)C)NC(=O)[C@H](CCCNC(=N)N)NC(=O)[C@@H](N)CCCNC(=N)N)C(=O)N[C@@H](CC(C)C)C(=O)N[C@@H](CCCNC(=N)N)C(=O)N[C@@H](Cc1c[nH]c2ccccc12)C(=O)N[C@@H](CC(C)C)C(N)=O [RW-BP100-7D] (HELM PEPTIDE1{R.R.L.F.R.R.[dI].L.R.W.L.[am]}$$$$V2.0)	µg/mL	25
CC[C@H](C)[C@H](NC(=O)[C@@H](CCCNC(=N)N)NC(=O)[C@H](CCCNC(=N)N)NC(=O)[C@H](Cc1ccccc1)NC(=O)[C@H](CC(C)C)NC(=O)[C@H](CCCNC(=N)N)NC(=O)[C@@H](N)CCCNC(=N)N)C(=O)N[C@@H](CC(C)C)C(=O)N[C@@H](CCCNC(=N)N)C(=O)N[C@@H](Cc1c[nH]c2ccccc12)C(=O)N[C@@H](CC(C)C)C(N)=O [RW-BP100-6D] (HELM PEPTIDE1{R.R.L.F.R.[dR].I.L.R.W.L.[am]}$$$$V2.0)	µg/mL	12
CC[C@H](C)[C@H](NC(=O)[C@H](CCCNC(=N)N)NC(=O)[C@H](CCCNC(=N)N)NC(=O)[C@H](Cc1ccccc1)NC(=O)[C@H](CC(C)C)NC(=O)[C@H](CCCNC(=N)N)NC(=O)[C@H](N)CCCNC(=N)N)C(=O)N[C@@H](CC(C)C)C(=O)N[C@@H](CCCNC(=N)N)C(=O)N[C@@H](Cc1c[nH]c2ccccc12)C(=O)N[C@@H](CC(C)C)C(N)=O [RW-BP100-1D] (HELM PEPTIDE1{[dR].R.L.F.R.R.I.L.R.W.L.[am]}$$$$V2.0)	µg/mL	12
CC[C@H](C)[C@H](NC(=O)[C@H](CCCNC(=N)N)NC(=O)[C@H](CCCNC(=N)N)NC(=O)[C@H](Cc1ccccc1)NC(=O)[C@@H](CC(C)C)NC(=O)[C@H](CCCNC(=N)N)NC(=O)[C@@H](N)CCCNC(=N)N)C(=O)N[C@@H](CC(C)C)C(=O)N[C@@H](CCCNC(=N)N)C(=O)N[C@@H](Cc1c[nH]c2ccccc12)C(=O)N[C@@H](CC(C)C)C(N)=O [RW-BP100-3D] (HELM PEPTIDE1{R.R.[dL].F.R.R.I.L.R.W.L.[am]}$$$$V2.0)	µg/mL	50
CC[C@H](C)[C@H](NC(=O)[C@H](CCCNC(=N)N)NC(=O)[C@@H](CCCNC(=N)N)NC(=O)[C@H](Cc1ccccc1)NC(=O)[C@H](CC(C)C)NC(=O)[C@H](CCCNC(=N)N)NC(=O)[C@@H](N)CCCNC(=N)N)C(=O)N[C@@H](CC(C)C)C(=O)N[C@@H](CCCNC(=N)N)C(=O)N[C@@H](Cc1c[nH]c2ccccc12)C(=O)N[C@@H](CC(C)C)C(N)=O [RW-BP100-5D] (HELM PEPTIDE1{R.R.L.F.[dR].R.I.L.R.W.L.[am]}$$$$V2.0)	µg/mL	6
CC[C@H](C)[C@H](NC(=O)[C@H](CCCNC(=N)N)NC(=O)[C@H](CCCNC(=N)N)NC(=O)[C@H](Cc1ccccc1)NC(=O)[C@H](CC(C)C)NC(=O)[C@H](CCCNC(=N)N)NC(=O)[C@@H](N)CCCNC(=N)N)C(=O)N[C@@H](CC(C)C)C(=O)N[C@H](CCCNC(=N)N)C(=O)N[C@@H](Cc1c[nH]c2ccccc12)C(=O)N[C@@H](CC(C)C)C(N)=O [RW-BP100-9D] (HELM PEPTIDE1{R.R.L.F.R.R.I.L.[dR].W.L.[am]}$$$$V2.0)	µg/mL	25

input: Data request, read-out MIC Escherichia coli ATCC25922, for CC[C@@H](C)[C@@H](NC(=O)[C@@H](CCCNC(=N)N)NC(=O)[C@@H](CCCNC(=N)N)NC(=O)[C@@H](Cc1ccccc1)NC(=O)[C@@H](CC(C)C)NC(=O)[C@@H](CCCNC(=N)N)NC(=O)[C@H](N)CCCNC(=N)N)C(=O)N[C@H](CC(C)C)C(=O)N[C@H](CCCNC(=N)N)C(=O)N[C@H](Cc1c[nH]c2ccccc12)C(=O)N[C@H](CC(C)C)C(N)=O [RW-BP100-All-D] (HELM PEPTIDE1{[dR].[dR].[dL].[dF].[dR].[dR].[dI].[dL].[dR].[dW].[dL].[am]}$$$$V2.0)
output: 6

input: // repeat for CC[C@H](C)[C@H](NC(=O)[C@H](CCCNC(=N)N)NC(=O)[C@H](CCCNC(=N)N)NC(=O)[C@@H](Cc1ccccc1)NC(=O)[C@H](CC(C)C)NC(=O)[C@H](CCCNC(=N)N)NC(=O)[C@@H](N)CCCNC(=N)N)C(=O)N[C@@H](CC(C)C)C(=O)N[C@@H](CCCNC(=N)N)C(=O)N[C@@H](Cc1c[nH]c2ccccc12)C(=O)N[C@@H](CC(C)C)C(N)=O [RW-BP100-4D] (HELM PEPTIDE1{R.R.L.[dF].R.R.I.L.R.W.L.[am]}$$$$V2.0) and report
output: 6
